settings: Sprague-Dawley, rat, in vivo, po
Labelling field: enter Condition met if recorded Exposure Ratio Cmax is less than 40%. Enter Condition not met if it equals or exceeds that cut-off.

Look over these answered cases.
>  <Molecule>
CC(=O)N[C@H](CCC(=O)O)C(=O)Oc1ccc2c(c1)[C@]13CCCC[C@@H]1C(C2)N(C)CC3 [3-(N-Ac-D-Glu)-dextrorphan]

>  <Qualitative label>
Condition met

$$$$
>  <Molecule>
CC(=O)N[C@@H](C)C(=O)Oc1ccc2c(c1)[C@]13CCCC[C@@H]1C(C2)N(C)CC3 [3-(N-Ac-L-Ala)-dextrorphan]

>  <Qualitative label>
Condition met

$$$$
>  <Molecule>
CC(=O)N[C@H](Cc1ccccc1)C(=O)Oc1ccc2c(c1)[C@]13CCCC[C@@H]1[C@H](C2)N(C)CC3 [3-(N-Ac-D-Phe)-dextrorphan]

>  <Qualitative label>
Condition met

$$$$

[Q] # strict comparison: is reported Exposure Ratio Cmax < 40%? input = CC(=O)N[C@@H](C(=O)Oc1ccc2c(c1)[C@]13CCCC[C@@H]1C(C2)N(C)CC3)C(C)C [3-(N-Ac-D-Val)-dextrorphan]
[A] Condition not met

[Q] # strict comparison: is reported Exposure Ratio Cmax < 40%? input = CC(=O)N[C@H](C)C(=O)Oc1ccc2c(c1)[C@]13CCCC[C@@H]1C(C2)N(C)CC3 [3-(N-Ac-D-Ala)-dextrorphan]
[A] Condition met

[Q] # strict comparison: is reported Exposure Ratio Cmax < 40%? input = CC[C@@H](C)[C@@H](NC(C)=O)C(=O)Oc1ccc2c(c1)[C@]13CCCC[C@@H]1C(C2)N(C)CC3 [3-(N-Ac-D-Ile)-dextrorphan]
[A] Condition not met

* * *

details: Sprague-Dawley, rat, in vivo, po, 6 mg/kg
Result type: AUC0-6 h
For clarity, give the value followed by its unit.

>  <Smiles input>
CC(=O)N[C@@H](C)C(=O)Oc1ccc2c(c1)[C@]13CCCC[C@@H]1C(C2)N(C)CC3

>  <AUC0-6 h>
29.6 ng·h/mL

$$$$
>  <Smiles input>
C[C@@H](N)C(=O)N[C@H](C)C(=O)Oc1ccc2c(c1)[C@]13CCCC[C@@H]1C(C2)N(C)CC3

>  <AUC0-6 h>
24.7 ng·h/mL

$$$$
>  <Smiles input>
CC[C@H](C)[C@H](NC(C)=O)C(=O)Oc1ccc2c(c1)[C@]13CCCC[C@@H]1C(C2)N(C)CC3

>  <AUC0-6 h>
27.4 ng·h/mL

$$$$
>  <Smiles input>
CC(=O)N[C@H](Cc1ccccc1)C(=O)Oc1ccc2c(c1)[C@]13CCCC[C@@H]1[C@H](C2)N(C)CC3

>  <AUC0-6 h>
19.1 ng·h/mL

$$$$
>  <Smiles input>
C[C@H](N)C(=O)N[C@@H](C)C(=O)Oc1ccc2c(c1)[C@]13CCCC[C@@H]1C(C2)N(C)CC3

>  <AUC0-6 h>
88.3 ng·h/mL

$$$$
>  <Smiles input>
CC(=O)N[C@@H](CCC(=O)O)C(=O)Oc1ccc2c(c1)[C@]13CCCC[C@@H]1C(C2)N(C)CC3

>  <AUC0-6 h>
18.4 ng·h/mL

$$$$

Measured AUC0-6 h, `CC(=O)N[C@@H](C(=O)Oc1ccc2c(c1)[C@]13CCCC[C@@H]1C(C2)N(C)CC3)C(C)C` : 467.4 ng·h/mL

* * *

details: rat, in vivo, po
Result type: Cmax compared to dextrorphan tartrate

Study these solved cases before continuing.
>  <Compound>
CC(=O)N[C@H](Cc1ccccc1)C(=O)Oc1ccc2c(c1)[C@]13CCCC[C@@H]1[C@H](C2)N(C)CC3 [3-(N-Ac-D-Phe)-dextrorphan]

>  <Cmax compared to dextrorphan tartrate>
much smaller

$$$$
>  <Compound>
C[C@H](N)C(=O)N[C@@H](C)C(=O)Oc1ccc2c(c1)[C@]13CCCC[C@@H]1C(C2)N(C)CC3 [3-(L-Ala-L-Ala)-dextrorphan]

>  <Cmax compared to dextrorphan tartrate>
larger

$$$$
>  <Compound>
CC(=O)N[C@H](C(=O)Oc1ccc2c(c1)[C@]13CCCC[C@@H]1C(C2)N(C)CC3)C(C)C [3-(N-Ac-L-Val)-dextrorphan]

>  <Cmax compared to dextrorphan tartrate>
lower

$$$$
>  <Compound>
CC(=O)N[C@H](CCC(=O)O)C(=O)Oc1ccc2c(c1)[C@]13CCCC[C@@H]1C(C2)N(C)CC3 [3-(N-Ac-D-Glu)-dextrorphan]

>  <Cmax compared to dextrorphan tartrate>
much smaller

$$$$

The record that follows has no Cmax compared to dextrorphan tartrate shown yet.
Measured Cmax compared to dextrorphan tartrate, CC(C)[C@H](NC(=O)[C@H](N)C(C)C)C(=O)Oc1ccc2c(c1)[C@]13CCCC[C@@H]1C(C2)N(C)CC3 [3-(D-Val-D-Val)-dextrorphan] : larger
